Assay: Solubility of amorphous Compound (I) in pH 1.2 SGF, turbidimetric method (Test I)
Type: physicochemical
Conditions: simulated gastric fluid pH 1.2 (SGF), simulated gastric fluid, kinetic from dmso stock, amorphous nanosuspension, 37° C., extrapolation of light scattering to zero intensity
Procedure: 10 μL of the stock solution was rapidly injected into 990 μL of stabilizer solution containing 0.2% w/w PVPK30 and 0.2% w/w Pluronic F127 and 0.25 mM SDS aqueous solution under a few seconds of ultrasonic treatment to make a 1 mM amorphous nanosuspension. This formulation is further diluted to 0.25 mM with purified water. The bulk concentration in equilibrium with amorphous particles is determined at 37° C. by a turbidimetric method (described in Lindfors et. al., Langmuir, 2006, 22(3), 911-916). […]
quantity-kind: solubility (µM)
Write the number in µM without appending the unit.

Sample COc1cc(F)c(O[C@H]2CC[C@@](C)(C(=O)O)CC2)cc1C(=O)N[C@@H]1[C@H]2CC[C@H](C2)[C@@H]1C(=O)NCC1(C)CCC1 ; solubility observed: 8
